- testName: Cytotoxicity against uninfected human CEM174 cells after 5 days by MTT assay
- Assay type: cell-based
- conditionParameters: read-out: TC50
measurementKind: log10 CC50 at 120 h (log10 of the value in µM)
In our notation, the value equals log10 of CC50 at 120 h in µM.

Answered examples (2):
> print(dat)
                               smilesrecord  measuredvalue
1  COc1ccc(C(=O)N[C@@H](CO)C(=O)N/N=C/c2ccccc2)cc1           1.66
2  Cc1ccc(S(=O)(=O)NCC(=O)N/N=C/c2ccccc2)cc1           1.92

Input: Can you share its log10 CC50 at 120 h? I mean this molecule: O=C(CNS(=O)(=O)c1ccc(Br)cc1)N/N=C/c1ccccc1
Output: 1.97

Input: What does the data say about its log10 CC50 at 120 h? Entry: Cc1ccc(S(=O)(=O)N[C@@H](Cc2ccccc2)C(=O)N/N=C/c2ccc(Cl)cc2)cc1
Output: 0.97

Input: Look up log10 CC50 at 120 h for this molecule: O=S(=O)(c1ccc(Br)cc1)N1CCC(c2ccccc2)=N1
Output: 1.58

Input: State the recorded log10 CC50 at 120 h for this entry: Cc1ccc(S(=O)(=O)N[C@@H](Cc2ccccc2)C(=O)N/N=C/c2ccc(Br)cc2)cc1
Output: 1.92

Input: So what's the measured log10 CC50 at 120 h for this one? Cc1ccc(S(=O)(=O)N[C@@H](Cc2ccccc2)C(=O)N/N=C/c2ccco2)cc1
Output: 2.00

----------
- targetSystem: Structural capsid protein (Human immunodeficiency virus 1)
- testName: Binding affinity to HIV1 capsid protein assessed as decrease in assembly rate by turbidity-based ultraviolet spectrophotometry (RVb= 59.2+/-0.3 milliOD/min)
Label rule, in plain words: Activity (milli optical density/minute) of 30 and up is condition met, under 30 is condition not met.

> print(dat)
                               smilesrecord   qualitativelabel
1   Cc1ccc(NC(=O)NCCSCc2ccc(CN(C)C)o2)cc1Cl      condition met
2   O=S(=O)(c1ccc(Br)cc1)N1CCC(c2ccccc2)=N1  condition not met
3    COc1ccc(C(=O)NCC(=O)N/N=C/c2ccccc2)cc1      condition met
4  Cc1ccc(S(=O)(=O)N[C@@H](CO)C(=O)N/N=C/c2ccccc2)cc1  condition not met

Next item in the queue.
Input: Could you tell me if the measured Activity (milli optical density/minute) of Cc1ccc(S(=O)(=O)N[C@@H](Cc2ccccc2)C(=O)N/N=C/c2ccc([N+](=O)[O-])cc2)cc1 reaches 30 or more?
Output: condition met

----------
- targetSystem: Structural capsid protein (Human immunodeficiency virus 1)
- testName: Binding affinity to HIV1 capsid protein assessed as decrease in assembly rate by turbidity-based ultraviolet spectrophotometry (RVb= 59.2+/-0.3 milliOD/min)
molecules and their reported Activity (milli optical density/minute)
Form field (numeric): enter value without unit.

> print(dat)
                               smilesrecord  measuredvalue
1  Cc1ccc(S(=O)(=O)NCC(=O)N/N=C/c2ccccc2)cc1           23.1

Input: Form field: reported Activity (milli optical density/minute) of Cc1ccc(S(=O)(=O)N[C@@H](Cc2ccccc2)C(=O)N/N=C/c2ccccc2)cc1
Output: 18.9

Input: What value of Activity (milli optical density/minute) has been reported for the following molecule? COc1ccc(C(=O)N[C@@H](Cc2ccccc2)C(=O)N/N=C/c2ccccc2)cc1
Output: 22.6

Input: Which measured Activity (milli optical density/minute) value corresponds to COc1ccc(C(=O)N[C@@H](CO)C(=O)N/N=C/c2ccccc2)cc1 ?
Output: 21.7

Input: Requested read-out: Activity (milli optical density/minute). Entry: COc1cc(/C=N/NC(=O)[C@H](Cc2ccccc2)NS(=O)(=O)c2ccc(C)cc2)ccc1O
Output: 10.6

Input: Recorded Activity (milli optical density/minute) of CC(=O)Nc1ccc(S(=O)(=O)N[C@@H](Cc2ccccc2)C(=O)N/N=C/c2ccccc2)cc1 , please.
Output: 20.8

Input: Item under review: Cc1ccc(S(=O)(=O)N[C@@H](Cc2ccccc2)C(=O)N/N=C/c2ccc3c(c2)OCO3)cc1 . Reported Activity (milli optical density/minute)?
Output: 7.9

Input: Dear colleague, I am looking for the recorded Activity (milli optical density/minute) of the following molecule: O=C(CNS(=O)(=O)c1ccc(Br)cc1)N/N=C/c1ccccc1
Output: 22.5

Input: So what's the measured Activity (milli optical density/minute) for this one? Cc1ccc(/C=N/NC(=O)[C@H](Cc2ccccc2)NS(=O)(=O)c2ccc(C)cc2)cc1
Output: 46
